All figures here come from patent US20150302140A1.

Tested on: five OVCA cell lines
Experiment: MTS assay, summary over five OVCA cell lines
Type: cell-based
Details: five OVCA cell lines, 72 hours, MTS; read-out: range of IC50
Please go through the items and note down their IC50.

Documented IC50 of C[C@H]1[C@H](OC(=O)CCC(=O)O)O[C@@H]2O[C@@]3(C)CC[C@H]4[C@H](C)CC[C@@H]1[C@@]24OO3 [Artesunate] : 1230 to 19300 nM

Input Cc1nc(Nc2ncc(C(=O)Nc3c(C)cccc3Cl)s2)cc(N2CCN(CCO)CC2)n1 . Output IC50: 214 to 953 nM

---

Tested on: OVCA8
Test: MTS cell proliferation/viability assay, 72 hours drug exposure
Assay type: cell-based
Details: log10 of IC50, uM
measured_parameter: IC50
Please answer in the form of a number followed by its unit of measurement.

So for Cc1nc(Nc2ncc(C(=O)Nc3c(C)cccc3Cl)s2)cc(N2CCN(CCO)CC2)n1 [Dasatinib] , the logged IC50 turned out to be 0.37 µM

Reported IC50 ( C[C@H]1[C@H](OC(=O)CCC(=O)O)O[C@@H]2O[C@@]3(C)CC[C@H]4[C@H](C)CC[C@@H]1[C@@]24OO3 [Artesunate] ) = 5.9 µM
